TARGET_OF_ASSAY: Cellular tumor antigen p53 (Homo sapiens) (UniProt P04637)
Sequence (P04637 whole entry, looked up): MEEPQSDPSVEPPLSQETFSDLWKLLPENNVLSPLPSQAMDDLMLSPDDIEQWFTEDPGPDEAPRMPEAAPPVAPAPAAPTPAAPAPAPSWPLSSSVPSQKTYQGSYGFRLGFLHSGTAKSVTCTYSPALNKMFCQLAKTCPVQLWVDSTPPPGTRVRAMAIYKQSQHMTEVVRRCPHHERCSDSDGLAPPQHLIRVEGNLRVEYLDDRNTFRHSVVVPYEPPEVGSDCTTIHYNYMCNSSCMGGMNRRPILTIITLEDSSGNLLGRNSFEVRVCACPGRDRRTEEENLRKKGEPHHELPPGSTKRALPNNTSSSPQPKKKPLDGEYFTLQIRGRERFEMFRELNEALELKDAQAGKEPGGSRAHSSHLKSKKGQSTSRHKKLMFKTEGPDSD
TEST_SUMMARY: TOX21_p53_BLA_p4_ratio: Tox21 HCT-116 p53 Agonism Beta-lactamase Assay, Ratio, Phase 4 (AID 2283601)
Results filed as inconclusive are left out. Calls of active or inactive are those of the source. Rule for the calls: active = hit-call score of the fitted dose curve at least 0.9, where 1 is the maximum; inconclusive = response in the unintended direction; inactive = score below 0.9.
Possible outcomes: 1 = active, -1 = inactive

>  <SMILES_CODE>
CC1=C(C(=O)O)N2C(=O)[C@@H](NC(=O)[C@H](N)c3ccc(O)cc3)[C@H]2SC1

>  <DISCRETE_LABEL>
-1

$$$$
>  <SMILES_CODE>
Nc1ccc(C(=O)Oc2ccccc2)c(O)c1

>  <DISCRETE_LABEL>
-1

$$$$
>  <SMILES_CODE>
CCOC(=O)C1=C[C@@H](OC(CC)CC)[C@H](NC(C)=O)[C@@H](N)C1

>  <DISCRETE_LABEL>
-1

$$$$
>  <SMILES_CODE>
CCn1cc(C(=O)O)c(=O)c2cnc(N3CCNCC3)nc21

>  <DISCRETE_LABEL>
-1

$$$$
>  <SMILES_CODE>
COc1cc(NS(C)(=O)=O)ccc1Nc1c2ccccc2nc2ccccc12

>  <DISCRETE_LABEL>
1

$$$$
>  <SMILES_CODE>
Cc1oc(C)c(C(=O)Nc2ccccc2)c1C

>  <DISCRETE_LABEL>
-1

$$$$
>  <SMILES_CODE>
CCN(CC)C(=O)N1CCN(C)CC1

>  <DISCRETE_LABEL>
-1

$$$$
>  <SMILES_CODE>
CCC(=O)c1c(O)cc(O)cc1O

>  <DISCRETE_LABEL>
-1

$$$$
>  <SMILES_CODE>
N#Cc1ccc(C(=O)O)cc1

>  <DISCRETE_LABEL>
-1

$$$$
>  <SMILES_CODE>
CN(C)CCC=C1c2ccccc2CSc2ccccc21

>  <DISCRETE_LABEL>
1

$$$$
>  <SMILES_CODE>
CC(C)(C#N)Nc1nc(Cl)nc(NC2CC2)n1

>  <DISCRETE_LABEL>
-1

$$$$
>  <SMILES_CODE>
CCN(CC)CCOC(=O)c1ccc(N)cc1Cl

>  <DISCRETE_LABEL>
-1

$$$$

---

TEST_SUMMARY: ATG_VDRE_CIS: Attagene CIS-FACTORIAL HepG2 Assay for human Vitamin D Receptor Element (VDRE) (AID 2282968)
STATED_CONDITIONS: HepG2 VDRE cis-reporter transcription, actives raise or lower the signal
The source made the active and inactive calls. Rule for the calls: active = hit-call score of the fitted dose curve at least 0.9, where 1 is the maximum; inactive = score below 0.9.
Classes used: 1 for active, 0 for inactive

>  <MOLECULE>
COc1c2occc2cc2ccc(=O)oc12

>  <DISCRETE_LABEL>
1

$$$$
>  <MOLECULE>
CC1=NN(c2cc(Cl)c(S(=O)(=O)O)cc2Cl)C(=O)C1N=Nc1ccc(S(=O)(=O)O)cc1 (stereo not given)

>  <DISCRETE_LABEL>
0

$$$$
>  <MOLECULE>
CCC(C)(CCC(C)C)C(=O)O (stereo not given)

>  <DISCRETE_LABEL>
0

$$$$
>  <MOLECULE>
COc1cccc(OC)c1C(=O)O

>  <DISCRETE_LABEL>
0

$$$$
>  <MOLECULE>
CC(=O)CCc1ccccc1

>  <DISCRETE_LABEL>
0

$$$$

---

TEST_SUMMARY: TOX21_p53_BLA_p3_viability: Viability Assessment in the Tox21 HCT-116 p53 Agonism Beta-lactamase Assay, Phase 3 (AID 2283593);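 note: cells exposed to compound for 16 h before reading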
Inconclusive results are not listed. The source made the active and inactive calls. The calls were made as follows: active = hit-call score of the fitted dose curve at least 0.9, where 1 is the maximum; inconclusive = response in the unintended direction; inactive = score below 0.9.
MEASURE_NAME: AC50

>  <COMPOUND>
COc1ccccc1N1CCN(CCCCNC(=O)c2ccc(-c3ccc(C(C)=O)cc3)cc2)CC1

>  <RECORDED_VALUE>
inactive

$$$$
>  <COMPOUND>
CCCCOC(=O)/C=C\C(=O)OCCCC

>  <RECORDED_VALUE>
inactive

$$$$
>  <COMPOUND>
N=C1N=C(N)c2cc3ccccc3cc21

>  <RECORDED_VALUE>
38.5 µM (active)

$$$$
>  <COMPOUND>
C[S+](C)CCC(N)C(=O)O (configuration not stated)

>  <RECORDED_VALUE>
inactive

$$$$
>  <COMPOUND>
CCCn1cnc2c1c(=O)n(CCCCC(C)=O)c(=O)n2C

>  <RECORDED_VALUE>
inactive

$$$$
>  <COMPOUND>
NC(=O)c1ccc([N+](=O)[O-])cc1

>  <RECORDED_VALUE>
inactive

$$$$
>  <COMPOUND>
O=[N+]([O-])c1cccc(S(=O)(=O)O)c1

>  <RECORDED_VALUE>
inactive

$$$$
>  <COMPOUND>
O=C=Nc1cccc(C(F)(F)F)c1

>  <RECORDED_VALUE>
inactive

$$$$
>  <COMPOUND>
O=C(Nc1ccc(Br)cc1)c1cc(Br)c(Br)s1

>  <RECORDED_VALUE>
32.2 µM (active)

$$$$
>  <COMPOUND>
CSSc1ccoc1C

>  <RECORDED_VALUE>
inactive

$$$$
>  <COMPOUND>
CC1=CC[C@H](CC=O)C1(C)C

>  <RECORDED_VALUE>
inactive

$$$$
>  <COMPOUND>
CC(C)CN(C[C@@H](O)[C@H](Cc1ccccc1)NC(=O)O[C@H]1CO[C@H]2OCC[C@H]21)S(=O)(=O)c1ccc(N)cc1

>  <RECORDED_VALUE>
inactive

$$$$

---

TEST_SUMMARY: TOX21_p53_BLA_p3_viability: Viability Assessment in the Tox21 HCT-116 p53 Agonism Beta-lactamase Assay, Phase 3 (AID 2283593);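 note: cells exposed to compound for 16 h before reading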
Records with an inconclusive call do not appear. Calls of active or inactive are those of the source. The calls were made as follows: active = hit-call score of the fitted dose curve at least 0.9, where 1 is the maximum; inconclusive = response in the unintended direction; inactive = score below 0.9.
Classes used: active, inactive

>  <COMPOUND>
CCCCCCCCCCCCCCCCN

>  <DISCRETE_LABEL>
inactive

$$$$
>  <COMPOUND>
O=C(CCS)OCC(COC(=O)CCS)(COC(=O)CCS)COC(=O)CCS

>  <DISCRETE_LABEL>
inactive

$$$$
>  <COMPOUND>
COc1ccc(-c2ccc3cc(C(=O)O)ccc3c2)cc1C12CC3CC(CC(C3)C1)C2

>  <DISCRETE_LABEL>
active

$$$$
>  <COMPOUND>
CC(C)(C)OC(=O)N1C[C@@H](F)C[C@H]1C(=O)O

>  <DISCRETE_LABEL>
inactive

$$$$
>  <COMPOUND>
COCC1=C(C(=O)OC(C)OC(=O)OC(C)C)N2C(=O)[C@@H](NC(=O)/C(=N\OC)c3csc(N)n3)[C@H]2SC1 (stereo partly specified)

>  <DISCRETE_LABEL>
inactive

$$$$
>  <COMPOUND>
COc1ccc(S(=O)(=O)N2c3ccc(Cl)cc3[C@@](O)(c3ccccc3Cl)[C@H]2C(=O)N2CCC[C@@H]2C(N)=O)cc1OC

>  <DISCRETE_LABEL>
inactive

$$$$
>  <COMPOUND>
C[N+]1(C)[C@@H]2CC(OC(=O)C(O)(c3cccs3)c3cccs3)C[C@H]1[C@@H]1O[C@@H]12 (stereo partly specified)

>  <DISCRETE_LABEL>
inactive

$$$$
>  <COMPOUND>
CCCC1([C@H](O)C/C=C/[C@H]2[C@H](O)CC(=O)[C@@H]2CCCCCCC(=O)OC)CCC1

>  <DISCRETE_LABEL>
inactive

$$$$
>  <COMPOUND>
CC[C@@H](CO)NCCN[C@@H](CC)CO

>  <DISCRETE_LABEL>
inactive

$$$$
>  <COMPOUND>
CC(=O)OCC1=C(C(=O)O)N2C(=O)[C@@H](NC(=O)Cc3cccs3)[C@H]2SC1

>  <DISCRETE_LABEL>
inactive

$$$$
>  <COMPOUND>
COc1ccc(NC(C)=O)cc1

>  <DISCRETE_LABEL>
inactive

$$$$
>  <COMPOUND>
CC=C(C(=CC)c1ccc(O)cc1)c1ccc(O)cc1

>  <DISCRETE_LABEL>
inactive

$$$$
>  <COMPOUND>
CCCOc1ccccc1-c1nc2n[nH]nc2c(=O)[nH]1

>  <DISCRETE_LABEL>
inactive

$$$$
>  <COMPOUND>
O=C(O)Cc1c[nH]c2ccccc12

>  <DISCRETE_LABEL>
inactive

$$$$
>  <COMPOUND>
N#C/C(=C1/SC[C@@H](c2ccc(Cl)cc2Cl)S1)n1ccnc1

>  <DISCRETE_LABEL>
inactive

$$$$
>  <COMPOUND>
CCO[Si](OCC)(OCC)c1ccccc1

>  <DISCRETE_LABEL>
inactive

$$$$
>  <COMPOUND>
CCN(CC)CCNC(=O)COc1ccc(Cl)cc1

>  <DISCRETE_LABEL>
inactive

$$$$
>  <COMPOUND>
CCCCCCCCCCCCCCCCCCNC(=O)OC1CCN(C(=O)OC[C@H](COC(=O)N(Cc2cccc[n+]2CC)C(=O)c2ccccc2OC)OC)CC1

>  <DISCRETE_LABEL>
inactive

$$$$
>  <COMPOUND>
CC(C)(C)C(=O)O

>  <DISCRETE_LABEL>
inactive

$$$$
>  <COMPOUND>
C=C(CC)C(=O)c1ccc(OCC(=O)O)c(Cl)c1Cl

>  <DISCRETE_LABEL>
inactive

$$$$
>  <COMPOUND>
N/C(=N\N=Cc1ccc(Cl)cc1)NN=Cc1ccc(Cl)cc1

>  <DISCRETE_LABEL>
active

$$$$
>  <COMPOUND>
O=C1C(c2[nH]c3ccccc3c2O)=Nc2ccccc21

>  <DISCRETE_LABEL>
inactive

$$$$
>  <COMPOUND>
CC[C@H](NC(C)C)[C@H](O)c1ccc(O)c2[nH]c(=O)ccc12

>  <DISCRETE_LABEL>
inactive

$$$$
>  <COMPOUND>
Cc1c(N)cccc1Cl

>  <DISCRETE_LABEL>
inactive

$$$$
>  <COMPOUND>
O=C1OC2(c3ccc(O)cc3Oc3cc(O)ccc32)c2ccc(N=C=S)cc21

>  <DISCRETE_LABEL>
inactive

$$$$
>  <COMPOUND>
CCCCCCCCCCCCCCCCCC[N+](C)(C)C

>  <DISCRETE_LABEL>
active

$$$$
>  <COMPOUND>
CO[C@@H]1[C@@H](O[C@@H]2O[C@H](C)[C@@H](O[C@H]3C[C@@](C)(O)[C@@H](OC(=O)CC(C)C)[C@H](C)O3)[C@H](N(C)C)[C@H]2O)[C@@H](CC=O)C[C@@H](C)C(=O)/C=C/C2OC2C[C@@H](C)OC(=O)C[C@H]1OC(C)=O (stereo partly specified)

>  <DISCRETE_LABEL>
inactive

$$$$
>  <COMPOUND>
CCN(CC)C(=O)Nc1ccc(OCC(O)CNC(C)(C)C)c(C(C)=O)c1 (stereo unspecified)

>  <DISCRETE_LABEL>
inactive

$$$$
>  <COMPOUND>
O=C(CCc1ccc(O)cc1)c1c(O)cc(O)cc1O

>  <DISCRETE_LABEL>
inactive

$$$$
>  <COMPOUND>
COc1ccc(N)c(OC)c1

>  <DISCRETE_LABEL>
inactive

$$$$
>  <COMPOUND>
O=C(O)c1ccccc1S

>  <DISCRETE_LABEL>
inactive

$$$$
>  <COMPOUND>
[O-][N+](=Nc1ccccc1)c1ccccc1

>  <DISCRETE_LABEL>
inactive

$$$$
>  <COMPOUND>
C[N+]1(CC2COC(c3ccccc3)(C3CCCCC3)O2)CCCCC1 (stereo unspecified)

>  <DISCRETE_LABEL>
inactive

$$$$
>  <COMPOUND>
COC(=O)c1ccccc1Cl

>  <DISCRETE_LABEL>
inactive

$$$$
>  <COMPOUND>
CC(C)(C)NCC(O)c1ccc(O)c(CO)n1 (stereo unspecified)

>  <DISCRETE_LABEL>
inactive

$$$$
>  <COMPOUND>
CCCc1nn(C)c2c(=O)[nH]c(-c3cc(S(=O)(=O)N4CCN(C)CC4)ccc3OCC)nc12

>  <DISCRETE_LABEL>
inactive

$$$$
